FYI, the data here is from patent US20090118330A1.

test system: IL-6 production in human peripheral blood mononuclear cells; assay: Inhibition of PMA/Ionomycin stimulated IL-6 production in human PBMC; assay type: cell-based; details: mean±S.D., n=3
measured quantity: IC50 (nM)
Field format: number, assumed nM, no unit text.

CCN(CC)CCN(CCNC(=O)Nc1cccc(C(F)(F)F)c1)C(=O)Nc1cccc(C(F)(F)F)c1.Cl [Compound A, hydrochloride] yielded IC50 of 3000
